System: PXR homodimer (NR concentration 270 nM)
Assay: PBM binding z-score (relative to random genomic background probes); higher = stronger binding; sequences stand for … in GC…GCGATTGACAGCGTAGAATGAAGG
Label scheme for PBM binding z-score: I: < 0.04; II: ≥ 0.04 and < 1; III: ≥ 1

>>> class_label("ATACCAAGTTGATCGTGAGGTCGTTGATACTAAC")
"III"
>>> class_label("GCCAGTTGGTCAGTAAAAGGTCACACACCGGTCG")
"III"
>>> class_label("CGTCAAAGTTCAAGGTAACGGAACAGAAAGCAGC")
"III"

Task: Classify this sequence: GCTTACGAGTCAAAGGTTATAGCATGAATAGAAT
Result: I

Task: Classify this sequence: ATATGTAGTTTACATCCGGGTCATTCAGGCTATG
Result: III

---

Test system: LXRa homodimer (NR concentration 270 nM)
Experiment: PBM binding z-score (relative to random genomic background probes); higher = stronger binding; sequences stand for … in GC…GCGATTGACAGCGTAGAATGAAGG
Label scheme for PBM binding z-score: low: < -0.2; middle: ≥ -0.2 and < 0.4; high: ≥ 0.4

Task: Classify this sequence: ACTAGCAGGCCAAGTTTCGGTCACTCAAACAAAG
Result: middle

Task: Classify this sequence: CCAGACAGATGAGAAGGTAACTCAGCCTCGATTA
Result: high

Task: Classify this sequence: CCTAGTTGGTCAGGAGGTCACACATCGGATATGA
Result: high

---

Tested on: PPARg:RXRa IVT, anti-PPARg (NR concentration 270 nM, RXRa partner concentration 90 nM)
Assay: PBM binding z-score (relative to random genomic background probes); higher = stronger binding; sequences stand for … in GC…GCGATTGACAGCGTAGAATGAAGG
Mark 1 for reported PBM binding z-score of 4 or greater; mark -1 for anything smaller.

Reference set, count: 3
>>> class_label("CAAAGTAGGTCACAGAGGTCAAAGTCCGTGCGTA")
1
>>> class_label("TCTTGTAGATCAAGCAGGTTAATAAAGCCTGAGT")
-1
>>> class_label("GCTAGCAGGCCATTTGGGTCACTAAATGACGGGC")
-1

Task: Would you say ACTTACGGGTCAACAAGGTTATAGCACGCGTATA shows PBM binding z-score at minimum 4?
Result: 1

Task: Would you say AGTCAAAGTTCAGGACGAAGTAACGTAAAGCACG shows PBM binding z-score at minimum 4?
Result: -1

Task: Would you say CAAACTAAGTCACCGGAAGGTCAAAGTCCGCATG shows PBM binding z-score at minimum 4?
Result: -1

Task: Would you say AAAATGAGGTTATTAAGATCAGGGAATTGCGGTC shows PBM binding z-score at minimum 4?
Result: -1

Task: Would you say TCAGACATGTGAAGGTAACTCAGGTACGCAGTCG shows PBM binding z-score at minimum 4?
Result: -1

---

Test system: RARg:RXRa (NR concentration 270 nM, RXRa partner concentration 90 nM)
Experiment: PBM binding z-score (relative to random genomic background probes); higher = stronger binding; sequences stand for … in GC…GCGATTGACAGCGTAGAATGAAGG
metric.name: PBM binding z-score
# print the numeric value only

>>> recorded_value("ACTATTAGTTGACTTAGGCCAACCGATACGACGC")
0.899
>>> recorded_value("CGTCCAAGGTCAAGGGTCAGTGAAGAGATGACGG")
7.4
>>> recorded_value("CCTAGTAGGTCAGGAGGTCACACACCGGATATGA")
7.25
>>> recorded_value("CATACAGGGTCAGCTAGGCCAGAGAAGGGACGGC")
4.63

Task: # input sequence: TGAATGAGGTTATAAGATAAGGGAACGTTGCAAA ; wanted: its PBM binding z-score
Result: 1.36

Task: # input sequence: GCATATAGGTAATACAAGGGGAAAGTCCGATTGT ; wanted: its PBM binding z-score
Result: 0.247

Task: # input sequence: TCATATAGGTAATACAGGTAAAAGTCGGCATCTA ; wanted: its PBM binding z-score
Result: 0.506

Task: # input sequence: CCTAGCAGGCCAATCTGGGTCACTTAAGGCTTGA ; wanted: its PBM binding z-score
Result: 1.07

Task: # input sequence: ATATGTAGGTTATCGGGTTATTCAGTTTGCGCAT ; wanted: its PBM binding z-score
Result: 1.3

Task: # input sequence: ACTAATAGTTGAGACGAGGGCAACCGATAGGTTG ; wanted: its PBM binding z-score
Result: 0.936

Task: # input sequence: CCTACTGGACCATTCAGAGGTCATTGATCATATG ; wanted: its PBM binding z-score
Result: 3.53

Task: # input sequence: GCTATTAGTTGAAAGGGCAACCCAATGATTCTCG ; wanted: its PBM binding z-score
Result: 1.31

---

Tested on: RARb:RXRa (NR concentration 270 nM, RXRa partner concentration 90 nM)
Assay: PBM binding z-score (relative to random genomic background probes); higher = stronger binding; sequences stand for … in GC…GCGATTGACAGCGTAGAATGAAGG
metric.name: PBM binding z-score
# print the numeric value only

The cases that follow already have their PBM binding z-score on record.
>>> recorded_value("TCTTGTAAATCAATAGAGGTTAAGAAAGTGCGCT")
1.13
>>> recorded_value("ATCTCTAGGTAAGACTCAGTTCAGTGGAGAACGC")
0.727
>>> recorded_value("CGTCAAAGTTCAACTAAGGTAACGAAAAGCACGC")
5.13

Task: Give recorded PBM binding z-score with RARb:RXRa (NR concentration 270 nM, RXRa partner concentration 90 nM) for the following sequence: CCTAGCAGGCCAGGGGCACTCAAGCATTTCGCTT
Result: 0.377

Task: Give recorded PBM binding z-score with RARb:RXRa (NR concentration 270 nM, RXRa partner concentration 90 nM) for the following sequence: ATCGAAAGGTCGGCGAGGTGAGTATACACCGTTT
Result: 3.5

Task: Give recorded PBM binding z-score with RARb:RXRa (NR concentration 270 nM, RXRa partner concentration 90 nM) for the following sequence: ATCGCTAGGTAAAAGTTCAGTGAATCCCGAGGAT
Result: 2.04

Task: Give recorded PBM binding z-score with RARb:RXRa (NR concentration 270 nM, RXRa partner concentration 90 nM) for the following sequence: AGAACGAGTGCAATGAGTTGATAGCACGGGTGGC
Result: 0.212

Task: Give recorded PBM binding z-score with RARb:RXRa (NR concentration 270 nM, RXRa partner concentration 90 nM) for the following sequence: ATACCAAGGTGAGCGTGAGGTCGTTGATACTAAC
Result: 1.97

Task: Give recorded PBM binding z-score with RARb:RXRa (NR concentration 270 nM, RXRa partner concentration 90 nM) for the following sequence: CCTTACGGGTCACTGACAGGTTATGGCATTTGGA
Result: 4.04

Task: Give recorded PBM binding z-score with RARb:RXRa (NR concentration 270 nM, RXRa partner concentration 90 nM) for the following sequence: CTCGAAAGGTCGTGCTCAGGTGAGTATTCCAAAC
Result: 3.76

Task: Give recorded PBM binding z-score with RARb:RXRa (NR concentration 270 nM, RXRa partner concentration 90 nM) for the following sequence: TCTTGTAGATCAAGCAGGTTAAGAAAGCCTGAGT
Result: 0.228

Task: Give recorded PBM binding z-score with RARb:RXRa (NR concentration 270 nM, RXRa partner concentration 90 nM) for the following sequence: ATCTCTAGGTAAAGATAGTTCTGTGAATGCAAAT
Result: 0.117

Task: Give recorded PBM binding z-score with RARb:RXRa (NR concentration 270 nM, RXRa partner concentration 90 nM) for the following sequence: GCACCAAGGTGAATAGGTCGTTGATGAGTAGGCG
Result: 1.93

Task: Give recorded PBM binding z-score with RARb:RXRa (NR concentration 270 nM, RXRa partner concentration 90 nM) for the following sequence: TTACCAAGGTGAAGGTCGTTGCTCCCTCTGTAGA
Result: 2.39

Task: Give recorded PBM binding z-score with RARb:RXRa (NR concentration 270 nM, RXRa partner concentration 90 nM) for the following sequence: TGAATGAGGTTAAAGATCAGGGCACGTGGCGTCG
Result: 2.41

Task: Give recorded PBM binding z-score with RARb:RXRa (NR concentration 270 nM, RXRa partner concentration 90 nM) for the following sequence: TCATATAGCTAAACAGGTGAAAGTCCGTAAGTTA
Result: 0.215

Task: Give recorded PBM binding z-score with RARb:RXRa (NR concentration 270 nM, RXRa partner concentration 90 nM) for the following sequence: TGTCAAAGTTCAAAGGAAACGTAAGTATCCACAC
Result: 4.95

Task: Give recorded PBM binding z-score with RARb:RXRa (NR concentration 270 nM, RXRa partner concentration 90 nM) for the following sequence: TTACCAAGGTGAGCCGAGGTCGTTGATCCAACTC
Result: 1.99

Cited source: the supplement of paper PMC6555819
